target: Transient receptor potential cation channel subfamily A member 1 (Homo sapiens, UniProt O75762); test: Agonist activity at human TRPA1 expressed in HEK293 cells assessed as induction of calcium influx at 30 uM after 6 mins by Fluo-4 dye-based assay relative to AITC; type: cell-based; settings: hek293, 0.1 h
Sequence (O75762 whole entry): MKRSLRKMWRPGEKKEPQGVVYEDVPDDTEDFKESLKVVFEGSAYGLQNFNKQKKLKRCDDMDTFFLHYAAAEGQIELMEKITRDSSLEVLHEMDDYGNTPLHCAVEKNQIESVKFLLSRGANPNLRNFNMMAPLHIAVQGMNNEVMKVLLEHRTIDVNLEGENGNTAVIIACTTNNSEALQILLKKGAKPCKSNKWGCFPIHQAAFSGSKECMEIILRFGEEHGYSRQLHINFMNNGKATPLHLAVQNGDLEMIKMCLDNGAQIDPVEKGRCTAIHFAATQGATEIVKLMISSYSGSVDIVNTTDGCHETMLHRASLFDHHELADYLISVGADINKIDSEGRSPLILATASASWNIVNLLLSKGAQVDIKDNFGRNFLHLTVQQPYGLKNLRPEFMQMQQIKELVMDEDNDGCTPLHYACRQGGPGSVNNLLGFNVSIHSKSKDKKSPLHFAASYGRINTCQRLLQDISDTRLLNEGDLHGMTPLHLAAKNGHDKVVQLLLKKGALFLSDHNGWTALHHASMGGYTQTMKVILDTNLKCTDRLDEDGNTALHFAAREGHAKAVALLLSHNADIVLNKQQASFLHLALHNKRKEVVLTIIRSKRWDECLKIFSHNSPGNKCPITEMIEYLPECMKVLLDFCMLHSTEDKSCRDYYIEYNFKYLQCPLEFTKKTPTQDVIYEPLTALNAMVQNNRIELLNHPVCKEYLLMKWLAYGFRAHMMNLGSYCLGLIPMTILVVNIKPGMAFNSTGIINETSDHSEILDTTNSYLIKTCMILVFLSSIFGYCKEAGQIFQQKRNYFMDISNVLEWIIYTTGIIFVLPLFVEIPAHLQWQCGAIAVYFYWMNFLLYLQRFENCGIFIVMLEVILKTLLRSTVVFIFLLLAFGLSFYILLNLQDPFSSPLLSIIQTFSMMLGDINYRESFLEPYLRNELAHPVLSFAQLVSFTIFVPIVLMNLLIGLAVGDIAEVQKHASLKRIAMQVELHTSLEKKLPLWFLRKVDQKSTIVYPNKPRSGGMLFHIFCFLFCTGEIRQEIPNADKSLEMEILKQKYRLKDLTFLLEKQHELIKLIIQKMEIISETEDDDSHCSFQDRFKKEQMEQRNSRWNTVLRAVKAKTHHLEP
Measured metric: fold change (FC)

                                    compound  val
 0               Oc1cc(O)cc(/C=C/C2CCCCC2)c1  0.3
 1                   COc1ccccc1/C=C/c1ccccc1  0.4
 2               CC(C)(C)/C=C/c1cc(O)cc(O)c1  0.3
 3      CCCCCCOc1ccc(/C=C/c2cc(O)cc(O)c2)cc1  0.5
 4   Oc1cc(O)cc(/C=C/c2ccc(OCc3ccccc3)cc2)c1  0.3
 5    Oc1cc(O)cc(/C=C/c2cc(Br)c(O)c(Br)c2)c1  0.3
 6  Oc1ccc(CCc2cc(O)cc(O)c2)cc1 [DIHYDRORESVERATROL]  0.4
 7   COCOc1ccc(/C=C/c2cc(OCOC)cc(OCOC)c2)cc1  0.5
 8        Oc1cc(O)cc(/C=C/c2ccc3c(c2)OCO3)c1  0.3
 9  COc1ccc(/C=C/c2cc(OC)cc(OC)c2)cc1 [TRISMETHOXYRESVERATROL]  0.3
10             Clc1cc(Cl)cc(/C=C/c2ccccc2)c1  0.3
11  CC(=O)Oc1ccc(/C=C/c2cc(OC(C)=O)cc(OC(C)=O)c2)cc1 [TRIACETYLRESVERATROL]  0.5
12                 Clc1ccc(/C=C/c2ccccc2)cc1  0.3
13  COc1ccc(/C=C/c2cc(O)cc(O)c2)cc1 [RESVERATROL 4'-METHYL ETHER]  0.3
14  COc1cc(O)cc(/C=C/c2ccccc2)c1 [PINOSYLVIN METHYL ETHER]  0.7
15  Oc1ccc(/C=C/c2ccccc2)cc1 [(E)-4-STYRYLPHENOL]  0.4
16      Oc1cc(O)cc(/C=C/c2cc(O)c(O)c(O)c2)c1  0.3
17            Oc1cccc(/C=C/c2cc(O)cc(O)c2)c1  0.4
18       Oc1ccc(/C=C/c2cc(Br)c(O)c(Br)c2)cc1  0.5
19  Oc1ccc(/C=C/c2cc(O)cc(O)c2)cc1 [RESVERATROL]  0.4
20           Oc1cc(O)cc(/C=C/c2ccc(Cl)cc2)c1  0.3
21  COc1cc(/C=C/c2ccccc2)cc(OC)c1 [3,5-O-DIMETHYLPINOSYLVIN]  0.6
22              Oc1cc(O)cc(/C=C/c2ccccc2O)c1  0.4
23                    Oc1ccccc1/C=C/c1ccccc1  0.6
24  Oc1cc(O)cc(/C=C/c2ccccc2)c1 [PINOSYLVIN]  0.4
25                Oc1ccc(-c2cc(O)cc(O)c2)cc1  0.5
26   Oc1cc(O)cc(/C=C/c2ccc(OCC3CCCCC3)cc2)c1  0.4
27         Clc1ccc(/C=C/c2cc(Cl)cc(Cl)c2)cc1  0.3
28      CCOc1ccc(/C=C/c2cc(OCC)cc(OCC)c2)cc1  0.4
29   CCCOc1ccc(/C=C/c2cc(OCCC)cc(OCCC)c2)cc1  0.3
30          COc1ccc(NC(=O)c2cc(O)cc(O)c2)cc1  0.3

Origin of measurements: ChEMBL document CHEMBL4020807
